Consider the following compounds and their measured pKa readings.
- experimental details: Measured pKa of cationic lipids in LNP or micellar formulations by TNS fluorescence
- Format: physicochemical
- test settings: measured in the Formulation milieu, TNS fluorescence, 1 mM total lipids

| compound | pKa |
| --- | --- |
| CCCCCC/C=C\COC(=O)CCCN(CCCC(=O)OC(CCCCCCCC)CCCCCCCC)C(=O)SCCCN(CC)CC | 6.58 |
| CCCCCC/C=C\COC(=O)CCCCCN(CCCCCC(=O)OC(CCCCCCC)CCCCCCC)C(=O)SCCCN(CC)CC | 6.45 |
| CCCCCC/C=C\COC(=O)CN(CC(=O)OC(CCCCCCCC)CCCCCCCC)C(=O)SCCCCN(C)C | 6.69 |
| CCCCCC/C=C\COC(=O)CCCN(CCCC(=O)OC(CCCCCCC)CCCCCCC)C(=O)SCCCN(CC)CC | 6.66 |
| CCCCCC/C=C\COC(=O)CN(CC(=O)OC(CCCCCCCC)CCCCCCCC)C(=O)SCCN(C)C | 5.13 |
| CCCCCC/C=C\COC(=O)CCCCCCCN(CCCCCCCC(=O)OC(CCCCCC)CCCCCC)C(=O)SCCN(C)C | 5.79 |
| CCCCCC/C=C\COC(=O)CCCCCN(CCC(=O)OC(CCCCCCC)CCCCCCC)C(=O)SCCN(C)C [drawing 82] | 5.77 |
| CCCCCC/C=C\COC(=O)CN(CC(=O)OC(CCCCC)CCCCC)C(=O)SCCN(C)C | 5.39 |
| CCCCCC/C=C\COC(=O)CCCN(CCCC(=O)OC(CCCCCCC)CCCCCCCC)C(=O)SCCCN(CC)CC (centres unmarked) | 6.65 |
| CCCCCC/C=C\COC(=O)CCCCCN(CCCC(=O)OC(CCCCCCC)CCCCCCC)C(=O)SCCN(C)C | 5.98 |
| CCC/C=C/CCC(CC/C=C/CCC)OC(=O)CCCN(CCCCCC(=O)OC/C=C\CCCCCC)C(=O)SCCN(C)C | 5.93 |
| CCCCCC/C=C\COC(=O)CN(CC(=O)OC(CCCCCCC)CCCCCCC)C(=O)SCCCN(C)C | 6.44 |
| CCCCCC/C=C\COC(=O)CCCCCN(CCCC(=O)OC(CCCCCCCC)CCCCCCCC)C(=O)SCCN(C)C | 5.38 |
| CCCCCC/C=C\COC(=O)CCCN(CCCC(=O)OC(CCCCCC)CCCCCCC)C(=O)SCCN(C)C (centres unmarked) | 5.95 |
| CCCCCC/C=C\COC(=O)CCCCCN(CCCCCC(=O)OC(CCCCCCC)CCCCCCC)C(=O)SCCN(C)C | 5.93 |
| CCCCCC/C=C\COC(=O)CCCCCN(CCCCCC(=O)OC(CCCCCCCC)CCCCCCCC)C(=O)SCCN(C)C | 5.82 |
| CCCCCC/C=C\COC(=O)CN(CC(=O)OC(CCCCCCCC)CCCCCCCC)C(=O)SCCCCN(CC)CC | 6.9 |
| CCCCCC/C=C\COC(=O)CCCN(CCCC(=O)OC(CCCCCC)CCCCCC)C(=O)SCCN(C)C | 6.05 |
| CCCCCC/C=C\COC(=O)CCCCCCCN(CCCC(=O)OC(CCCCCC)CCCCCC)C(=O)SCCN(C)C | 5.61 |
| CCCCCC/C=C\COC(=O)CCCCCCCN(CCCC(=O)OC(CCCCCCC)CCCCCCC)C(=O)SCCN(C)C | 5.38 |
| CCCCCC/C=C\COC(=O)CCCCCCCN(CCCCCCCC(=O)OC(CCCCC)CCCCC)C(=O)SCCN(C)C | 5.81 |
| CCCCCC(CCCCC)OC(=O)CCCN(CCCC(=O)OC(CCCCC)CCCCC)C(=O)SCCCN(C)C | 6.8 |
| CCCCCC/C=C\COC(=O)CCCN(CC(=O)OC(CCCCCCC)CCCCCCC)C(=O)SCCCN(C)C | 6.85 |
| CCCCCC/C=C\COC(=O)CN(CC(=O)OC(CCCCCCC)CCCCCCCC)C(=O)SCCN(C)C (centres unmarked) | 5.14 |
| CCC/C=C/CCC(CC/C=C/CCC)OC(=O)CCCCCN(CCCCCC(=O)OC/C=C\CCCCCC)C(=O)SCCN(C)C | 5.94 |
| CCCCCCCC(CCCCCCC)OC(=O)CN(CC(=O)OC(CCCCCCC)CCCCCCC)C(=O)SCCCN(CC)CC | 5.62 |
| CCCCCC/C=C\COC(=O)CCCCCCN(CCCCCCC(=O)OC(CCCCCC)CCCCCC)C(=O)SCCN(C)C | 5.67 |
| CCCCCC(CCCCC)OC(=O)CN(CC(=O)OC(CCCCC)CCCCC)C(=O)SCCCN(CC)CC | 6.21 |
| CCCCCC/C=C\COC(=O)CCCCCCCN(CCCCCCCC(=O)OC(CCCCCCC)CCCCCCC)C(=O)SCCN(C)C | 5.89 |
| CCCCCC/C=C\COC(=O)CCCN(CC(=O)OC(CCCCCCC)CCCCCCC)C(=O)SCCN(C)C | 5.83 |
| CCC/C=C/CCC(CC/C=C/CCC)OC(=O)CCCN(CCCC(=O)OC/C=C\CCCCCC)C(=O)SCCN(C)C | 6 |
| CCC/C=C/CCC(CC/C=C/CCC)OC(=O)CCCCCCN(CCCCCCC(=O)OC/C=C\CCCCCC)C(=O)SCCN(C)C | 5.68 |

Reference for the values: patent US20210323914A1
